Item-by-item account of IC50
Biological target: TEL-PDGFRβ fusion gene transfected cells (Ba/F3)
Sequence (P09619 33-1106 limits assumed, change not shown): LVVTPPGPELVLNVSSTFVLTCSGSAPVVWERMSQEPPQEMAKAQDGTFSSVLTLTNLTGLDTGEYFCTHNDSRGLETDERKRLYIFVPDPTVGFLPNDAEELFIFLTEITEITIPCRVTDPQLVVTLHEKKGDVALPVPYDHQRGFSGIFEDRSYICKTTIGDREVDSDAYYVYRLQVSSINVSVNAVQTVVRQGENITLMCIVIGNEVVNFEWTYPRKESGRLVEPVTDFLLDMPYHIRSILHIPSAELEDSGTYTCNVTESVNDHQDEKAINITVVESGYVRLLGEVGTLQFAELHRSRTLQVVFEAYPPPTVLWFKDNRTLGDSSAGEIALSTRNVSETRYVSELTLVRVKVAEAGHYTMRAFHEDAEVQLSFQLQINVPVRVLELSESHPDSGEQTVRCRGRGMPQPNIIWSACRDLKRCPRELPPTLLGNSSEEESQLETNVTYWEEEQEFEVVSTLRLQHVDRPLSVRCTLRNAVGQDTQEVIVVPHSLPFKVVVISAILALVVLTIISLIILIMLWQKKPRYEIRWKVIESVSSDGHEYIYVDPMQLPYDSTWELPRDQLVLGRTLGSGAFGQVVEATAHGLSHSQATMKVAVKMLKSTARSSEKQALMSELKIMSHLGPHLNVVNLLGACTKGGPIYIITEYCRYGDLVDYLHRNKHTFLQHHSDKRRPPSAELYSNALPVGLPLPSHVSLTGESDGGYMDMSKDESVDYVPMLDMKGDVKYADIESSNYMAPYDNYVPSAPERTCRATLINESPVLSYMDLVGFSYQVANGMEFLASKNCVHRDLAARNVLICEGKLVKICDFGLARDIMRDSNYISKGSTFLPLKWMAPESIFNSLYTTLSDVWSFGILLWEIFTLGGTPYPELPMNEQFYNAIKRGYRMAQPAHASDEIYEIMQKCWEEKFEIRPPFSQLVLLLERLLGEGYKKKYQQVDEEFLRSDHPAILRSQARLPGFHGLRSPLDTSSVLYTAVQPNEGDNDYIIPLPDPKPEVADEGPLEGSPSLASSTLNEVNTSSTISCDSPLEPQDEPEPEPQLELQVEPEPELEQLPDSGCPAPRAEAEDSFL
Test: Suppression of proliferation of TEL-PDGFRβ fusion gene transfected Ba/F3 cells
Settings: TEL-PDGFRβ expressing Ba/F3 cells, 72 hours, final concentration 0.1 to 10,000 nM; read-out: PDGFR β/BaF3 proliferation inhibition (IC50)
All answers are understood in nM, so give the number only.

Field: example entries. Status: answers known.
1) Cc1ccc(C(=O)N[C@H]2CCCC[C@@H]2O)cc1NC(=O)c1cncc(OC2CCC(F)(F)CC2)c1 50
2) Cc1ccc(C(=O)N[C@H]2CCCC[C@@H]2O)cc1Nc1ccnc(-c2cncc3ccccc23)n1 46
3) Cc1ccc(C(=O)N[C@H]2CCCC[C@@H]2O)cc1OCc1cncc(-c2ncccn2)c1 2.5
4) Cc1ccc(C(=O)N[C@H]2CCCC[C@@H]2O)cc1NC(=O)c1cncc(-c2ccc(F)cc2)c1 30
5) Cc1ccc(C(=O)N[C@H]2CCCC[C@@H]2O)cc1NC(=O)c1cnc2sccn12 0.8
6) Cc1ccc(C(=O)N[C@@H](CO)[C@@H](O)c2ccccc2)cc1CNc1cncc(-c2ccccc2)c1 27
7) Cc1ccc(C(=O)N[C@H]2CCCC[C@@H]2O)cc1NC(=O)c1cncc(-c2cccc(OC(F)(F)F)c2)c1 8

Query :: Give TEL-PDGFRβ fusion gene transfected cells (Ba/F3) IC50 for Cc1ccc(C(=O)N[C@H]2CCCC[C@@H]2O)cc1NCc1cncc(-c2cnccn2)c1
Result :: 1.4

###

Biological target: PDGFR-β (Homo sapiens (Human), UniProt P09619)
Sequence (P09619 33-1106): as the sequence (P09619 33-1106 limits assumed, change not shown) above
pIC50: −log10 of the molar value.
We use 7 as the dividing line for pIC50: on or above the line is y, below is n.

Query :: Would you say Cc1ccc(C(=O)N[C@H]2CCCC[C@@H]2O)cc1NC(=O)c1cncc(-c2cccc(C(F)(F)F)c2)c1 shows pIC50 at minimum 7?
Result :: y

Query :: Would you say Cc1ccc(C(=O)N[C@H]2CCCC[C@@H]2O)cc1OCc1cncc(-c2cccnc2)c1 shows pIC50 at minimum 7?
Result :: n

Query :: Would you say Cc1ccc(C(=O)N[C@H]2CCCC[C@@H]2O)cc1COc1cncc(-c2ncccn2)c1 shows pIC50 at minimum 7?
Result :: y

###

Biological target: UniProtKB P09619
Item-by-item account of pIC50
Friendly reminder that pIC50 comes from taking -log10 of the concentration in mol/L.

1) Cc1ccc(C(=O)N[C@H]2CCCC[C@@H]2O)cc1NC(=O)c1cnc(NC2CC(F)(F)C2)s1 7.41
2) Cc1ccc(C(=O)N[C@H]2CCCC[C@@H]2O)cc1NCc1cnn2cccnc12 6.48
3) CN1CCN(Cc2cncc(/C(F)=C/c3cc(C(=O)N[C@H]4CCCC[C@@H]4O)ccc3F)c2)CC1 6.82

Query :: So what does the record say about pIC50 for Cc1ccc(C(=O)N[C@@H](CO)[C@@H](O)c2ccccc2)cc1CNc1cncc(-c2ccccc2)c1 ?
Result :: 7.06

Query :: So what does the record say about pIC50 for COc1cncc(C(=O)Nc2cc(C(=O)N[C@H]3CCCC[C@@H]3O)ccc2C)c1 ?
Result :: 6.92

Query :: So what does the record say about pIC50 for O=C(N[C@H]1CCCC[C@@H]1O)c1ccc(F)c(CNc2cncc(-c3ncccn3)c2)c1 ?
Result :: 6.77

Query :: So what does the record say about pIC50 for Cc1ccc(C(=O)N[C@H]2CCCC[C@@H]2O)cc1NC(=O)c1cncc(-c2cccc(F)c2)c1 ?
Result :: 7.89

Query :: So what does the record say about pIC50 for Cc1ccc(C(=O)N[C@H]2CCCC[C@@H]2O)cc1NC(=O)c1cncc(-c2c(F)cccc2F)c1 ?
Result :: 7.48
